Values compiled from PubChem BioAssay (NCI).

system: MDA-MB-231 breast; assay: NCI-60 one-dose screen, 48 h; details: 10 µM unless noted
About 83,000 compounds went through this panel and 20% of them were active in at least one assay; those are over-represented in the sample as a whole. Activity calls are given as the source filed them. Rule for the calls: active = growth percent below 10; inactive = the rest.
Outcome codes: active, inactive

molecule | label-class
COc1cc(/C=C/C(=O)N2CCN(C(=O)/C=C/c3ccccc3)CC2)cc(OC)c1OC | inactive
Cc1ccccc1-c1cc(Cc2ccccc2O)c(=O)[nH]n1 | inactive
CCCCC(C#N)C(N)=O (configuration not stated) | inactive
CCOC(Cc1c(N)[nH]c(=S)[nH]c1=O)OCC | inactive
CCOc1cc(-c2ccc[nH]2)[nH]c1/C=C1\N=C(C)C(C(=O)OC)=C1C | active
CCCCCCCCSc1ncnc2c1ncn2CO | inactive
c1ccc2cc(C[n+]3ccn(CCCCCCCn4cc[n+](Cc5ccc6ccccc6c5)c4)c3)ccc2c1 | inactive
COc1ccc2c(c1)C(=O)/C(=C/c1cccc(OCC(=O)c3ccccc3)c1)CC2 | inactive
Clc1ccc(CCC(Cn2ccnc2)Sc2c(Cl)cccc2Cl)cc1 (configuration not stated) | inactive
CC[C@@H]1OC(=O)[C@H](C)[C@@H](O[C@H]2C[C@@](C)(OC)[C@@H](O)[C@H](C)O2)[C@H](C)[C@@H](O[C@@H]2O[C@H](C)C[C@H](N(C)C)[C@H]2O)[C@](C)(O)C[C@@H](C)[C@@H]2N[C@@H](COCCOC)O[C@H]([C@H]2C)[C@]1(C)O | inactive
c1ccc(Nc2nnc(-c3cc(-c4cccnc4)n(-c4ccccc4)n3)s2)cc1 | inactive
OC(c1cc(C(F)(F)F)nc2c(C(F)(F)F)cccc12)C1CCCCN1 (configuration not stated) | inactive
CCOC(=O)C1=C(C)N2C(=NC3=C(CCC/C3=C\c3ccc(Cl)cc3)C2c2ccc(Cl)cc2)S1 (configuration not stated) | inactive
CCOC(=O)/C=C(/C)Sc1cc(O)c2ccccc2c1O | inactive
CCOC(=O)C1=NN(c2ccc(Cl)cc2)C2C3N(c4ccc(Cl)cc4)N=C(C(=O)OCC)N3c3ccccc3N12 (configuration not stated) | inactive
c1ccc(N2CCN(c3nncc4ccccc34)CC2)nc1 | inactive
COc1ccc2nc3cc(Cl)ccc3c(Nc3cc(C(C)C)c(O)cc3C)c2c1 | inactive
COc1ccc(-c2cc(Cc3cccs3)c(=O)n(Cn3ccc4ccccc43)n2)cc1 | inactive
COC(=O)c1ccc2c(c1)nc(-c1ccc(O)c(OC)c1)n2-c1cc(C(C)(C)C)[nH]n1 | inactive
Cc1cccc(Cl)c1NC(=O)c1ccc2nc(NC(=O)NC3CC(C)(C)NC(C)(C)C3)sc2c1 | inactive
O[C@@H]1Cc2ccc3ccccc3c2N[C@H](c2ccoc2)C1 | inactive
O=C(Nc1ccc(Cl)cc1)Nc1ccc(Nc2nncc3ccccc23)cc1 | inactive
COc1ccc2c(c1)C(=O)/C(=C/c1ccc([N+](=O)[O-])s1)O2 | active
Nc1nc(N)c([N+](=O)[O-])c(=O)[nH]1 | inactive
c1csc([C@@H]2C[C@@H]3Cc4ccc5ccccc5c4N2O3)c1 | inactive
Cc1[nH]n(C(N)=S)c(=O)c1N=Nc1ccc(F)c(Cl)c1 | inactive
Nc1nc(SCC2(CCl)COC2)c2[nH]cnc2n1 | inactive
O=C1C(Cl)=C(N=Nc2c(Cl)c(O)c3ccccc3c2O)C(=O)c2ccccc21 | inactive
COC(=O)CCC1=C(CC(=O)OC)C(C)=N/C1=C\c1[nH]c(-c2ccc[nH]2)cc1OC | active
COc1c(O)cc2oc3cc(O)c(CC=C(C)C)c(O)c3c(=O)c2c1C/C=C(\C)CCC=C(C)C | active
Cc1ccc(C(=O)Nc2ccc(Cl)cc2C(=O)NCc2ccccc2)cc1 | inactive
O=C1Nc2ccc(F)cc2/C1=C/c1nc(-c2ccc(F)cc2)n2ccccc12 | inactive
O=C(CCc1nnc(Cn2ccnc2)o1)c1nc2ccccc2[nH]1 | inactive
O=C1/C(=C/c2ccc([N+](=O)[O-])o2)Oc2ccc(Cl)cc21 | active
O=C1CN(CO)C(=O)CN1CO | inactive
CCCCN(CCCC)CCCOC(=O)c1ccc(N)cc1 | inactive
CC(=O)NCCSC(=O)C(=O)SCCNC(C)=O | inactive
CC1(C)OC(=O)C(=Cc2ccccc2Br)C(=O)O1 | inactive
O=c1ccn(C2CCCO2)c(=O)[nH]1 (configuration not stated) | inactive
CSc1nc2c(c(=O)[nH]1)C(c1ccc(Cl)cc1)C1=C(N2)/C(=C/c2ccc(Cl)cc2)CNC1 (configuration not stated) | inactive
NC(N)=NN=c1c(=O)c2ccccc2c1=O | inactive
Cn1c(=O)c2nc(SCc3ccccc3)n(C)c2n(C)c1=O | inactive

---

tested on: BT-549 breast; test: NCI-60 one-dose screen, 48 h (100 = growth as untreated, 0 = no growth, -100 = all killed); conditions: 10 µM unless noted
This is part of a sample that, as a whole, favours compounds with a hit. Of some 83,000 tested, about 20% had one in any assay.

compound | growth / %
NC(=O)SCC(=O)Nc1ccccc1-c1ccccc1 | 89.4
COc1ccc2nc(-c3ccc(-n4cncc4-c4ccc(OC)c(N)c4)cc3)sc2c1 | 102
COc1cc(/C=C/C(=O)c2ccc(F)cc2)ccc1OCCCCCOc1cc2c(cc1OC)C(=O)N1CCCC1C=N2 (centres undefined) | -58
COc1ccc(-c2cc(C(=O)Nc3nc4cc(C)c(C)cc4s3)nc3cc(-c4ccccc4)nn23)cc1OC | 122
OC(CCC(O)(c1ccccc1)c1ccccc1)(c1ccccc1)c1ccccc1 | 121
Cn1c(=O)c2c(nc(Br)n2CCC(=O)Nc2ccc(F)cc2)n(C)c1=O | 91.8
CCOC(=O)c1cc(-c2cccnc2)nc2c(Cl)cc(Cl)cc12 | 109
O=C(Nc1nc(-c2ccc(Cl)cc2)cs1)c1cc(O)c(O)c(O)c1 | 24.6
Clc1cc(Cl)c(OCC#CI)cc1Cl | 135
O=C1C[C@@H]2/C(=C(O)\C=C\c3ccccc3)C(=O)C=C[C@@H]2O1 | -40.5
Oc1ccc(Cc2ccc(O)c(C3CC(c4ccc(Cl)cc4)=NN3)c2)cc1C1CC(c2ccc(Cl)cc2)=NN1 (centres undefined) | 36.2
COc1ccc2c(c1)C(=O)c1c-2c(OCCCN(C)C)nc2cc(Br)ccc12 | 89.7
CCCCCCCCCCC[C@@H](C[C@H]1OC(=O)[C@H]1CCCCCC)OC(=O)[C@@H](CC(C)C)NC=O | 31.6
COc1cc(C2NC(c3ccc(Cl)cc3)C(C)C(=NC(=O)c3cnccn3)C2C)cc(OC)c1OC (centres undefined) | 102
C[C@]12CC[C@@H]3c4ccc(O)cc4CC[C@H]3[C@@H]1CC[C@@H]2NS(=O)(=O)c1cccc(Br)c1 | 69.2
O=C1c2ccccc2-c2c1nc1ccccc1[n+]2[O-] | 98.2
COc1ccc(/C=N/NC(=O)c2ccc(S(C)(=O)=O)cc2)cc1OC | 109
N#Cc1cccc(/C=C(/C(=O)c2ccccc2)c2ccccc2)c1 | 26.7
COc1ccc(-c2nn(-c3ccccc3)cc2/C=C2\SC(=S)N(CCc3ccc(O)cc3)C2=O)cc1 | 103
C=CC1=C(C(=O)O)N2C(=O)[C@@H](NC(=O)/C(=N\O)c3csc(N)n3)[C@H]2SC1 (stereo in doubt) | 118
O=C(CCc1nnc(SCc2ccccc2)s1)c1nc2ccccc2[nH]1 | 108
Nc1ncc(-c2cnn(C3CCNCC3)c2)cc1-c1nc2cc(Cl)ccc2o1 | 61.3
Cc1nn(-c2ccccc2)c(Cl)c1C(CC(=O)c1ccc(Cl)cc1)CC(=O)c1ccc(Cl)cc1 | 85.6
COc1ncc(-c2ccc3nccc(C#CCN4CCN(S(C)(=O)=O)CC4)c3c2)cc1NS(=O)(=O)c1ccc(F)cc1F | -17.6
COc1cc(C(=O)/C=C/c2cccnc2Nc2ccccc2)cc(OC)c1OC | -55.5
O=[N+]([O-])c1ccc(N/N=C\c2ccccc2[N+](=O)[O-])nc1 | 101
COc1ccc2c(c1)C(=O)c1c-2c(=O)n(CCCCCCC(=O)NO)c2ccccc12 | 23.4
Cn1cnc([N+](=O)[O-])c1S(=O)(=O)Oc1ccc(Cl)cc1 | 103
COC(=O)[C@]1(CCSC)N[C@H](c2cn(-c3ccccc3)nc2C)[C@@H]2C(=O)N(c3ccc(C)cc3)C(=O)[C@@H]21 | 82.8
O=C(/C=C/c1cc2ccccc2[nH]c1=O)c1ccc(O)cc1 | 28
O=C(Nc1cccc([N+](=O)[O-])c1)c1cccc(C(=O)Nc2cccc([N+](=O)[O-])c2)c1 | -4.34
Cc1cc(C)c(OC(=O)CSc2nc3ccccc3c(=O)n2CCc2ccccc2)cc1C | 104
Nc1ccc2c3c(cccc13)-c1ccccc1-2 | 71
O=C(Nc1cccc(-n2cc(-c3ccncc3)c(-c3ccc(O)c(Cl)c3)n2)c1)Nc1ccc(Cl)c(C(F)(F)F)c1 | -12.6
CC(=O)NC1(C(=O)O)CCCC1 | 118
Cc1cc(Cl)ccc1Nc1nc(C(F)(F)F)ccc1C(=O)NCC(=O)N/N=C/c1c(Cl)cccc1Cl | 85.5
Cc1cc(O)c2c(c1)C[C@H]1[C@@H]3CC[C@H]4CC(=O)CC[C@]4(C)[C@H]3CC(=O)[C@]21C | 91.4
Cc1nn(-c2ccc(Cl)cc2)c2nc3c(nc12)C(=O)C(=O)c1ccccc1-3 | 92.1
COC(=O)CCC1=C(C)/C(=C/c2[nH]c(-c3ccc[nH]3)cc2OC)N=C1C | 14.3
